# Tested on: Plasmodium berghei
# Assay Details: Screen against P. berghei liver stage (PbLuc), transformed with Luciferase, at 2uM
# Format: functional, HepG2
# Condition Context: tested at 2 uM
Screen size: about 68,000 compounds; about 2,700 (4%) showed an effect of 50% or more. The full list was thinned out, with strong results kept by preference.
Response field label: string, one of Met (INHIBITION strictly below 10%) or Not met.

Solved entries:
• CC(C)Cc1nc(CCn2cncn2)n(-c2ccc3c(c2)OCCO3)n1 = Not met
• Cc1noc(C)c1C(=O)N1CCCCC1c1cc(C)n2ccnc2n1 (stereo unspecified) = Not met

Identify whether the compound O=C(c1ccncc1F)N1CC2CC1(C(=O)N1CCCC1)C2 records INHIBITION below 10%.
Not met

Identify whether the compound CC(CN1CCOCC1)N(Cc1ccccc1)Cc1ccncc1 (stereo unspecified) records INHIBITION below 10%.
Met

Identify whether the compound COCCN1CCC2(CC1)CC(N1CCOCC1)c1cc(C)ccc12 (stereo unspecified) records INHIBITION below 10%.
Met

Identify whether the compound CC(C)C(C)NC(=O)CCN1C(=O)CCc2cc(F)ccc21 (stereo unspecified) records INHIBITION below 10%.
Not met

Identify whether the compound CN(CCCNc1cc(N2CCCC2CO)ncn1)S(C)(=O)=O (stereo unspecified) records INHIBITION below 10%.
Not met

Identify whether the compound CC(C)c1nc(CCn2cncn2)n(-c2ccc3c(c2)OCCO3)n1 records INHIBITION below 10%.
Met

Identify whether the compound CN(C)C(=O)C1CCC2(CCN(Cc3cnn(C)c3)CC2)C1 (stereo unspecified) records INHIBITION below 10%.
Met

Identify whether the compound CN1CCN(C2COC3(CCN(Cc4ccc(F)cc4)CC3)C2)CC1 (stereo unspecified) records INHIBITION below 10%.
Met

Identify whether the compound CCn1cc(C(=O)N2CCOC(c3nc(-c4cccs4)no3)C2)cn1 (stereo unspecified) records INHIBITION below 10%.
Met

====

# Test system: Plasmodium berghei
# Assay Details: Screen against P. berghei liver stage (PbLuc), transformed with Luciferase, at 2uM
# Assay type: functional, HepG2
# Condition Context: tested at 2 uM
Screen size: about 68,000 compounds; about 2,700 (4%) showed an effect of 50% or more. The entries come from a sample that favours strong results as a whole.
Response field label: string, one of Met (INHIBITION strictly below 30%) or Not met.

Solved entries:
* CCCC1CCCN(C(=O)Nc2cccnc2OC)CC1 (stereo not drawn) | Met
* COc1ccccc1C1(CNC(=O)NCc2noc(C)n2)CC1 | Met
* NC(=O)CN1C(=O)CO[C@H]2CN(Cc3ccc(Cl)cc3)C[C@H]21 | Not met
* NC(=O)CN1C(=O)CO[C@H]2CN(Cc3ccc(F)c(F)c3)C[C@H]21 | Met
* CC1c2ncc(COc3cccnc3)n2CCN1C(=O)C1=CCCCC1 (stereo not drawn) | Not met
* Cc1cc2nc(CO[C@H]3CN(C4CCCCC4)C[C@H]3F)[nH]c2cc1C | Met

Identify whether the molecule CS(=O)(=O)N1CCCC(Cc2ccnc(Nc3ccccn3)c2)C1 (stereo not drawn) records INHIBITION below 30%.
Met

Identify whether the molecule Cc1ccc(CN2CCn3c(CNC(=O)c4cccn4C)cnc3C2)s1 records INHIBITION below 30%.
Met

Identify whether the molecule COc1ccccc1C1(CNc2ccnc(C(=O)N(C)C)c2)CC1 records INHIBITION below 30%.
Not met

Identify whether the molecule COCc1cnc2n1CCN(C(=O)c1cnc3ccccc3c1)C2C (stereo not drawn) records INHIBITION below 30%.
Met

Identify whether the molecule COCc1cnc2n1CCN(C(=O)c1cc3ccccc3o1)C2C (stereo not drawn) records INHIBITION below 30%.
Met

Identify whether the molecule Cc1ccc(CC(=O)N2CCCC(c3cc(C(N)=O)[nH]n3)C2)cn1 (stereo not drawn) records INHIBITION below 30%.
Met

Identify whether the molecule CN(C)C(=O)c1ccc(NCCNc2ccc3ccccc3n2)nc1 records INHIBITION below 30%.
Met

Identify whether the molecule COCc1cnc2n1CCN(C(=O)C1=CCCC1)C2C (stereo not drawn) records INHIBITION below 30%.
Not met

Identify whether the molecule NC(=O)CN1C(=O)CO[C@H]2CN(Cc3ccccc3)C[C@H]21 records INHIBITION below 30%.
Not met

Identify whether the molecule CC(=O)N1C[C@@H](F)[C@@H](OCc2nc3ccc(C#N)cc3[nH]2)C1 records INHIBITION below 30%.
Not met

Identify whether the molecule CCOCc1cnc2n1CCN(C(=O)C1=CCCC1)C2C (stereo not drawn) records INHIBITION below 30%.
Met

Identify whether the molecule CN1C[C@@H](F)[C@@H](OCc2nc3ccc(C#N)cc3[nH]2)C1 records INHIBITION below 30%.
Not met

Identify whether the molecule Cc1nn2cnnc2c(C)c1CCC(=O)Nc1nc2c(s1)CCC2 records INHIBITION below 30%.
Met

Identify whether the molecule O=C1NCC2(CCCN(Cc3cccnc3)C2)Oc2ccccc21 (stereo not drawn) records INHIBITION below 30%.
Met

Identify whether the molecule O=c1[nH][nH]c2cn(-c3ccccc3)c(=O)n12 records INHIBITION below 30%.
Met

====

The compounds listed here are annotated with their INHIBITION.
# System: Plasmodium berghei
# Assay Details: Screen against P. berghei liver stage (PbLuc), transformed with Luciferase, at 2uM
# Type: functional, HepG2
# Condition Context: tested at 2 uM
Out of some 68,000 compounds screened, about 2,700 (4%) showed an effect of 50% or more. What follows is part of a selection rich in strong results, with near analogues and random picks from the rest.
Record the value in %, omitting the unit from your answer.

Quote INHIBITION reported for CCCS(=O)(=O)N1CCC2(CC1)CN(CC1CCOC1)c1ccccc12 (stereo not drawn) please.
27.67

Quote INHIBITION reported for CNS(=O)(=O)CCCn1nnc(-c2ccc(F)c(C)c2)n1 please.
31.66

Quote INHIBITION reported for NC(=O)CN1CCCN(C(=O)Cc2ccc(Br)cc2)CC1 please.
11.24

Quote INHIBITION reported for Cc1ccc(C(C)NC(=O)N2CCCN(CC(F)F)CC2)s1 (stereo not drawn) please.
9.27

Quote INHIBITION reported for COC(=O)c1cc2n(n1)CCCN(C(=O)Cc1c[nH]c3ccccc13)C2 please.
19.27

Quote INHIBITION reported for O=C(O)c1cc2n(n1)CCCN(C(=O)CCc1c[nH]c3ccccc13)C2 please.
6.72

Quote INHIBITION reported for CNc1cc2c(nn1)CCN(C(=O)c1cc(C)n(C3CC3)c1C)C2 please.
26.06

Quote INHIBITION reported for CCC(=O)N1CCCC1C(=O)N1CCC(Cc2ccc(F)cc2)CC1 (stereo not drawn) please.
69.52

====

# Test system: Plasmodium berghei
# Assay Details: Screen against P. berghei liver stage (PbLuc), transformed with Luciferase, at 2uM
# Assay type: functional, HepG2
# Condition Context: tested at 2 uM
Among all 68,000 compounds or so, about 2,700 (4%) showed an effect of 50% or more. The sample holds strong results, similar compounds and a random draw of the others, so the mix is not that of the screen.
The molecules listed here are annotated with their INHIBITION.
Answer format reminder: number followed by unit.

Example entries and their recorded answers appear below.
• O=C(NCC1CCCN1CCc1ccccc1)NCC1(O)CCC1 (stereo unspecified) = 57.34%
• COc1cc2c(cc1-c1nc3c(cnn3C(C)C(C)C)[nH]1)OCO2 (stereo unspecified) = 7.67%

Look up and report INHIBITION, with Plasmodium berghei as system, for COc1cc2c(cc1-c1nc3c(cnn3C(C)C3CC3)[nH]1)OCO2 (stereo unspecified)
67.28%

Look up and report INHIBITION, with Plasmodium berghei as system, for O=C(NCC1CCN(CCc2ccccc2)C1)NCC1(O)CCC1 (stereo unspecified)
-69.19%

Look up and report INHIBITION, with Plasmodium berghei as system, for O=C(NCC1CCCN1Cc1ccccc1)NCC1(O)CCC1 (stereo unspecified)
-19.78%

Look up and report INHIBITION, with Plasmodium berghei as system, for CCn1ncc2[nH]c(-c3cc4c(cc3OC)OCO4)nc21
27.42%

====

The compounds listed here are annotated with their INHIBITION.
# System: Plasmodium berghei
# Assay Details: Screen against P. berghei liver stage (PbLuc), transformed with Luciferase, at 2uM
# Assay type: functional, HepG2
# Condition Context: tested at 2 uM
About 2,700 (4%) of roughly 68,000 compounds showed an effect of 50% or more. This excerpt belongs to a sample that is enriched for strong results.
Record the value in %, omitting the unit from your answer.

Example entries and their recorded answers appear below.
• CCc1cnc(CN(C(C)=O)C2CCN(CCc3ccccn3)C2)o1 (configuration not stated) = 35.65
• CCc1cnc(CN(C(C)=O)C2CCN(CCc3cnn(C)c3)C2)o1 (configuration not stated) = 1.61
• CC(=O)N1CCN(c2ccc3ccc(C(=O)NC4CCCC4)cn23)CC1 = -7.41
• CCc1cnc(CN(C(C)=O)C2CCN(Cc3nccn3C)C2)o1 (configuration not stated) = 10.22
• CC(C)N1CCN(c2ccc3ccc(C(=O)NC4CCCC4)cn23)CC1 = 50.17

Quote INHIBITION reported for CCc1cnc(CN(C(C)=O)C2CCN(CC(=O)N3CCCC3)C2)o1 (configuration not stated) please.
75.98

Quote INHIBITION reported for CCc1cnc(CN(C(C)=O)C2CCN(CC3(O)CCCCC3)C2)o1 (configuration not stated) please.
43.79

Quote INHIBITION reported for CCCn1c(O)nnc1SCC1OCCc2ccccc21 (configuration not stated) please.
-10.86

Quote INHIBITION reported for Cn1c(SCC2OCCc3ccccc32)n[nH]c1=O (configuration not stated) please.
54.53

Quote INHIBITION reported for Cc1nc(N(C)C)nc(N(C)Cc2cnccn2)c1C please.
20.29

Quote INHIBITION reported for CS(=O)(=O)CCC(=O)Nc1ccsc1 please.
10.22

Quote INHIBITION reported for CCc1cnc(CN(C(C)=O)C2CCN(CCc3ccccc3)C2)o1 (configuration not stated) please.
51.94
